Recorded pIC50 for the following compounds
# PROTOCOL DETAILS: Cytotoxicity against human JMAR cells assessed as cell viability by MTS assay
# Format: functional, cell-based
pIC50: −log10 of the molar value.
OBSERVABLE: pIC50

* CC1(C)CC[C@]2(C(=O)O)CC[C@]3(C)C(=CC[C@@H]4[C@@]5(C)CC[C@H](O[C@@H]6O[C@H](CO[C@@H]7OC[C@H](O)[C@H](O)[C@H]7O[C@@H]7OC[C@@H](O)[C@H](O)[C@H]7O)[C@@H](O)[C@H](O)[C@H]6O)C(C)(C)[C@@H]5CC[C@]43C)[C@@H]2C1 [PITHEDULOSIDE C] | 5.00
* CC1(C)CC[C@]2(C(=O)O)CC[C@]3(C)C(=CC[C@@H]4[C@@]5(C)CC[C@H](O[C@@H]6O[C@H](CO[C@@H]7OC[C@H](O)[C@H](O)[C@H]7O[C@@H]7OC[C@H](O)[C@H](O)[C@H]7O)[C@@H](O)[C@H](O)[C@H]6O)C(C)(C)[C@@H]5CC[C@]43C)[C@@H]2C1 | 4.94

All figures here come from ChEMBL document CHEMBL1765056.
